System: nectin 4 protein on NIH:OVCAR-5 cells
Measurement protocol: Effect of peptides on anti-Nectin-4 antibody binding to cells as determined by flow cytometry
Assay type: cell-based, human
Condition set: Run One; Control 1 = 8.99
Where no end group is shown, it is not given here.
Items are presented alongside their recorded N4 MFI/IgG MFI.

| Substance | N4 MFI/IgG MFI |
| --- | --- |
| PPPRNPLDGSVLLR-NH2 (listed as Homo sapiens) [Peptide 7] | 14.62 |
| LPSLNPGPALEEGQ-NH2 (listed as Homo sapiens) [Peptide 11] | 6.71 |
| ECRVSTFPAGSFQA-NH2 (listed as Homo sapiens) [Peptide 9] | 4.55 |
| ELALLHSKYGLHVS-NH2 (listed as Homo sapiens) [Peptide 5] | 6.82 |
| VSPAYEGRVEQPPP-NH2 (listed as Homo sapiens) [Peptide 6] | 7.82 |
| TCVVSHPGLLQDQR-NH2 (listed as Homo sapiens) [Peptide 17] | 2.36 |
| LWHIGREGAMLKCL-NH2 (listed as Homo sapiens) [Peptide 20] | 9.33 |
| AEASVRGLEDQNLW-NH2 (listed as Homo sapiens) [Peptide 19] | 3.23 |
| VVLGQDAKLPCFYR-NH2 (listed as Homo sapiens) [Peptide 2] | 4.84 |
| HSRSAAVTSEFHLV-NH2 (listed as Homo sapiens) [Peptide 15] | 3.70 |
| GQGLTLAASCTAEG-NH2 (listed as Homo sapiens) [Peptide 12] | 3.91 |
| LRNAVQADEGEYEC-NH2 (listed as Homo sapiens) [Peptide 8] | 11.99 |
| AWARVDAGEGAQEL-NH2 (listed as Homo sapiens) [Peptide 4] | 3.95 |
| EVKGTTSSRSFKHS-NH2 (listed as Homo sapiens) [Peptide 14] | 4.23 |
| QARLRLRVLVPPLP-NH2 (listed as Homo sapiens) [Peptide 10] | 1.68 |
| YRGDSGEQVGQVAW-NH2 (listed as Homo sapiens) [Peptide 3] | 3.42 |
| LVPSRSMNGQPLTC-NH2 (listed as Homo sapiens) [Peptide 16] | 5.00 |
| PAGELETSDVVTVV-NH2 (listed as Homo sapiens) [Peptide 1] | 1.36 |
| EGSPAPSVTWDTEV-NH2 (listed as Homo sapiens) [Peptide 13] | 4.20 |

====

Test system: ovarian cancer cell aggregation and spheroid formation
Measurement protocol: Spheroid assay for peptides (visual scale +1 to +5)
Type: cell-based, human
Condition set: 48 hrs; visual scale of +1 to +5; Control = 4
Where no end group is shown, it is not given here.
Items are presented alongside their recorded Spheroid-48.

| Substance | Spheroid-48 |
| --- | --- |
| HSQVVQVNDSMYGF-NH2 (listed as Homo sapiens) [Peptide 30] | 3 |
| VVLGQDAKLPCFYR-NH2 (listed as Homo sapiens) [Peptide 2] | 3 |
| WTRLDGPLPSGVRVDGDT-NH2 (listed as Homo sapiens) [Peptide 28] | 2 |
| VDVLDPQEDSGKQV-NH2 (listed as Homo sapiens) [Peptide 26] | 2 |
| ESLTLNVQYEPE-NH2 (listed as Homo sapiens) [Peptide 47] | 2 |
| YRGDSGEQVGQVAW-NH2 (listed as Homo sapiens) [Peptide 3] | 2 |
| PEVTIEGFDGNW-NH2 (listed as Homo sapiens) [Peptide 48] | 2 |
| EVKGTTSSRSFKHS-NH2 (listed as Homo sapiens) [Peptide 14] | 2 |
| WTTLNGSLPKGVEAQNRT-NH2 (listed as Homo sapiens) [Peptide 57] | 3 |
| LWHIGREGAMLKCL-NH2 (listed as Homo sapiens) [Peptide 20] | 2 |
| TCVVSHPGLLQDQR-NH2 (listed as Homo sapiens) [Peptide 17] | 2 |
| ELALLHSKYGLHVS-NH2 (listed as Homo sapiens) [Peptide 5] | 3 |
| AEASVRGLEDQNLW-NH2 (listed as Homo sapiens) [Peptide 19] | 2 |
| LVPSRSMNGQPLTC-NH2 (listed as Homo sapiens) [Peptide 16] | 1 |
| EGSPAPSVTWDTEV-NH2 (listed as Homo sapiens) [Peptide 13] | 2 |
| QARLRLRVLVPPLP-NH2 (listed as Homo sapiens) [Peptide 10] | 2 |
| TTEHSGIYVCHVSN-NH2 (listed as Homo sapiens) [Peptide 24] | 3 |
| LPSLNPGPALEEGQ-NH2 (listed as Homo sapiens) [Peptide 11] | 3 |
| HGRRAGPVPTA-NH2 (listed as Homo sapiens) [Peptide 56] | 3 |

====

Items are presented alongside their recorded Spheroid-48.
System: ovarian cancer cell aggregation and spheroid formation
Measurement protocol: Spheroid assay for peptides (visual scale +1 to +5)
Assay type: cell-based, human
Condition set: 48 hrs; visual scale of +1 to +5; Control = 4
Where no end group is shown, it is not given here.

| Substance | Spheroid-48 |
| --- | --- |
| ECRVSTFPAGSFQA-NH2 (listed as Homo sapiens) [Peptide 9] | 3 |
| QRITHILHVSFLAE-NH2 (listed as Homo sapiens) [Peptide 18] | 5 |
| RVDGDTLGFPPLTT-NH2 (listed as Homo sapiens) [Peptide 23] | 2 |
| ICEFATFPTGNRES-NH2 (listed as Homo sapiens) [Peptide 38] | 3 |

====

Test system: ovarian cancer cell aggregation and spheroid formation
Measurement protocol: Spheroid assay for peptides (visual scale +1 to +5)
Format: cell-based, human
Condition set: 48 hrs; visual scale of +1 to +5; Control = 4
Where no end group is shown, it is not given here.
Items are presented alongside their recorded Spheroid-48.

| Substance | Test target | Spheroid-48 |
| --- | --- | --- |
| VSPAYEGRVEQPPP-NH2 (listed as Homo sapiens) [Peptide 6] | ovarian cancer cell aggregation and spheroid formation | 2 |
| SGKQVDLVSAS-NH2 (listed as Homo sapiens) [Peptide 27] | ovarian cancer cell aggregation and spheroid formation | 2 |
| CLSEGQPPPSYNWT-NH2 (listed as Homo sapiens) [Peptide 21] | ovarian cancer cell aggregation and spheroid formation | 2 |
| RPSFTDGTIRLS-NH2 (listed as Homo sapiens) [Peptide 36] | ovarian cancer cell aggregation and spheroid formation | 3 |
| HSRSAAVTSEFHLV-NH2 (listed as Homo sapiens) [Peptide 15] | ovarian cancer cell aggregation and spheroid formation | 2 |
| WTRLDGPLPSGVRV-NH2 (listed as Homo sapiens) [Peptide 22] | ovarian cancer cell aggregation and spheroid formation | 3 |
| FANPLPSVKITQVTW-NH2 (listed as Homo sapiens) [Peptide 32] | ovarian cancer cell aggregation and spheroid formation | 2 |
| AWARVDAGEGAQEL-NH2 (listed as Homo sapiens) [Peptide 4] | ovarian cancer cell aggregation and spheroid formation | 2 |
| EAQNRTLFFKGPINY-NH2 (listed as Homo sapiens) [Peptide 52] | ovarian cancer cell aggregation and spheroid formation | 2 |

====

Items are presented alongside their recorded N4 MFI.
Tested on: nectin 4 protein on NIH:OVCAR-5 cells
Measurement protocol: Effect of peptides on anti-Nectin-4 antibody binding to cells as determined by flow cytometry
Format: cell-based, human
Condition set: Run Five; 150 μg/mL peptide, 30 minutes; Control 5 = 17,768.90
Where no end group is shown, it is not given here.

| Substance | N4 MFI |
| --- | --- |
| HGRRAGPVPTA-NH2 (listed as Homo sapiens) [Peptide 56] | 21,060.14 |
| TNPIGTRSGQVEVN-NH2 (listed as Homo sapiens) [Peptide 54] | 19,706.27 |
| NYSLAGTYICEATN-NH2 (listed as Homo sapiens) [Peptide 53] | 40,909.47 |

====

Tested on: nectin 4 protein on NIH:OVCAR-5 cells
Measurement protocol: Effect of peptides on anti-Nectin-4 antibody binding to cells as determined by flow cytometry
Format: cell-based, human
Condition set: Run Three; IgG control primary antibody; Control 3 = 1330
Where no end group is shown, it is not given here.

| Substance | IgG MFI |
| --- | --- |
| TWQKSTNGSKQNV-NH2 (listed as Homo sapiens) [Peptide 33] | 1255 |
| RPSFTDGTIRLS-NH2 (listed as Homo sapiens) [Peptide 36] | 1748 |
| LSRLELEDEGVYIC-NH2 (listed as Homo sapiens) [Peptide 37] | 4078 |
| TNWIEGTQAVLRAKKGQ-NH2 (listed as Homo sapiens) [Peptide 40] | 1423 |
